Measured values drawn from patent US20250177530A1 for this set.

Give EC50 for every item shown.
TEST SYSTEM: T1, recombinant human ENPP1 extracellular domain fused with a His6-FLAG tag (human)
T1 construct: Expressed in Expi293 cells and purified on nickel resin; It was coated at 50 ng/well in the ELISAs and captured in biotinylated form on streptavidin biosensors in BLItz; also called ENPP1-His; rhENPP1
T1 sequence (P22413 98-925, looked up): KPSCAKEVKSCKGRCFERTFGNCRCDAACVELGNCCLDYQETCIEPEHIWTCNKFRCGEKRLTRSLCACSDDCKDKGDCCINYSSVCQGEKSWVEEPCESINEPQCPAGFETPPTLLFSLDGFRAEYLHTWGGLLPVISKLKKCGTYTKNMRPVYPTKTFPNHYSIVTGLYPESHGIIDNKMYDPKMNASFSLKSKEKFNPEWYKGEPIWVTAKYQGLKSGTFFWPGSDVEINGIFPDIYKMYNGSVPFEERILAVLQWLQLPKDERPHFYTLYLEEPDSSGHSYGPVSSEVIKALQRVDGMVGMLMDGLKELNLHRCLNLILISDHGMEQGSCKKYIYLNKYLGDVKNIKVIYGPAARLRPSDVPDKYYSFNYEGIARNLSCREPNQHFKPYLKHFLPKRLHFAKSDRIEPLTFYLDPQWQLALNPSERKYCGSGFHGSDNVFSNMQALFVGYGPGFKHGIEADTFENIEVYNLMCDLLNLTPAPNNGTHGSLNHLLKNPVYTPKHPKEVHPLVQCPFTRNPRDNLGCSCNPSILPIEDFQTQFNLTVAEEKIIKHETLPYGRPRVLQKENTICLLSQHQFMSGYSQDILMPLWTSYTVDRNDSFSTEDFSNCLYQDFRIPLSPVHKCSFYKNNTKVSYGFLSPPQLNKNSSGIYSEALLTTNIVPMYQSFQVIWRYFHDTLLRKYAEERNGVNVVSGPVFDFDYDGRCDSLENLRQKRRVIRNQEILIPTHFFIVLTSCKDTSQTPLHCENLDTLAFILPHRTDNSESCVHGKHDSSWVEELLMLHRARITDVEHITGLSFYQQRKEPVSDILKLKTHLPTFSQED
ASSAY NAME: ELISA, ENPP1-His coated at 50 ng/well, anti-FLAG-HRP detection

[
  {
    "BINDER": "Fab 17 (Fab, V domains shown, Human Fab from a phage library, expressed in E. coli and purified on Ni-NTA; also called 17-Fab; Clone #1 (Fab)) VH: QVQLVESGGGLVKPGGSLRLSCAASGFTFSDYYMSWIRQAPGKGLEWVSYISSSGSTIYYADSVKGRFTISRDNAKNSLYLQMNSLRAEDTAVYYCAREVYYYDSSGYYTYYFDYWGQGTLVTVSS VL: DIQMTQSPSSLSASVGDRVTITCRASQSISSYLNWYQQKPGKAPKLLIYAASSLQSGVPSRFSGSGSGTDFTLTISSLQPEDAATYYCQQYDTFPLTFGGGTKVEIKR",
    "REPORTED": "13.9 nM"
  },
  {
    "BINDER": "scFv 17 (scFv, VL-(G4S)3-VH orientation; Expressed in E. coli; also called scFv format antibody 17; not shown: C-terminal FLAG tag used for detection; The protein was purified on Ni-NTA) scFv: DIQMTQSPSSLSASVGDRVTITCRASQSISSYLNWYQQKPGKAPKLLIYAASSLQSGVPSRFSGSGSGTDFTLTISSLQPEDAATYYCQQYDTFPLTFGGGTKVEIKGGGGSGGGGSGGGGSQVQLVESGGGLVKPGGSLRLSCAASGFTFSDYYMSWIRQAPGKGLEWVSYISSSGSTIYYADSVKGRFTISRDNAKNSLYLQMNSLRAEDTAVYYCAREVYYYDSSGYYTYYFDYWGQGTLVTVSS",
    "REPORTED": "6.4 nM"
  }
]

For every item below, please supply its EC50.
1. scFv 3G12 (scFv, VL-(G4S)3-VH orientation; Expressed in E. coli; also called scFv format antibody 3G12; not shown: C-terminal FLAG tag used for detection; The protein was purified on Ni-NTA) scFv: DIQMTQSPSSLSASVGDRVTITCRASQSISSYLNWYQQKPGKAPKLLIYAASSLQSGVPSRFSGSGSGTDFTLTISSLQPEDVAVYYCQQYYTSRITFGQGTKLEIKGGGGSGGGGSGGGGSQVQLVESGGGLVKPGGSLRLSCAASGFTFSDYYMSWIRQAPGKGLEWVSYISSSGSTIYYADSVKGRFTISRDNAKNSLYLQMNSLRAEDTAVYYCAREVYYYDSSGYYTYYFDYWGQGTLVTVSS
2. Fab 3G12 (Fab, V domains shown, Same heavy chain as Fab 17, different light chain; Expressed in E. coli and purified on Ni-NTA; also called 3G12-Fab; Clone #2 (Fab)) VH: QVQLVESGGGLVKPGGSLRLSCAASGFTFSDYYMSWIRQAPGKGLEWVSYISSSGSTIYYADSVKGRFTISRDNAKNSLYLQMNSLRAEDTAVYYCAREVYYYDSSGYYTYYFDYWGQGTLVTVSS VL: DIQMTQSPSSLSASVGDRVTITCRASQSISSYLNWYQQKPGKAPKLLIYAASSLQSGVPSRFSGSGSGTDFTLTISSLQPEDVAVYYCQQYYTSRITFGQGTKLEIKR

Resp:
["52.2 nM", "2.6 nM"]
